protocol: Solubility at 37° C. in aqueous and biorelevant media
Assay type: physicochemical
test_parameters: pH 1.2 HCl buffer, 37 °C, pH 1.2, simulated gastric fluid, thermodynamic from solid, target 250 mg/mL (in free form)

structure_string: COCCN(CCCCc1ccc2c(n1)NCCC2)CC[C@H](Nc1ncnc2ccccc12)C(=O)O
units_of_measure: mg/mL
solubility at 2 h: 215

----------
protocol: Solubility at 37° C. in aqueous and biorelevant media
Format: physicochemical
test_parameters: pH 4.5 acetate buffer (50 mM), 37 °C, pH 4.5, aqueous buffer, thermodynamic from solid, target 250 mg/mL (in free form)

structure_string: COCCN(CCCCc1ccc2c(n1)NCCC2)CC[C@H](Nc1ncnc2ccccc12)C(=O)O
solubility at 24 h: 220 mg/mL

----------
protocol: Solubility at 37° C. in aqueous and biorelevant media
Assay type: physicochemical
test_parameters: pH 4.5 acetate buffer (50 mM), 37 °C, pH 4.5, aqueous buffer, thermodynamic from solid, target 250 mg/mL (in free form)

molecule: COCCN(CCCCc1ccc2c(n1)NCCC2)CC[C@H](Nc1ncnc2ccccc12)C(=O)O [Pattern A]
solubility at 2 h / mg/mL: 214

----------
protocol: Solubility at 37° C. in aqueous and biorelevant media
Format: physicochemical
test_parameters: FaSSGF (fasted state simulated gastric fluid), 37 °C, pH 1.6, fassgf or other biorelevant, thermodynamic from solid, FaSSGF, pH 1.6, 37° C., target 250 mg/mL (in free form)
metric: solubility at 24 h

structure_string: COCCN(CCCCc1ccc2c(n1)NCCC2)CC[C@H](Nc1ncnc2ccccc12)C(=O)O
assay_value: 224 mg/mL

----------
protocol: Solubility at 37° C. in aqueous and biorelevant media
Assay type: physicochemical
test_parameters: water, 37 °C, thermodynamic from solid, target 250 mg/mL (in free form)

structure_string: COCCN(CCCCc1ccc2c(n1)NCCC2)CC[C@H](Nc1ncnc2ccccc12)C(=O)O
solubility at 24 h, mg/mL: 218

----------
protocol: Solubility at 37° C. in aqueous and biorelevant media
Assay type: physicochemical
test_parameters: FaSSGF (fasted state simulated gastric fluid), 37 °C, pH 1.6, fassgf or other biorelevant, thermodynamic from solid, FaSSGF, pH 1.6, 37° C., target 250 mg/mL (in free form)
metric: solubility at 2 h

structure_string: COCCN(CCCCc1ccc2c(n1)NCCC2)CC[C@H](Nc1ncnc2ccccc12)C(=O)O
assay_value: 206 mg/mL

----------
protocol: Solubility at 37° C. in aqueous and biorelevant media
Type: physicochemical
test_parameters: FeSSIF-v1 (fed state simulated intestinal fluid), 37 °C, pH 5, fessif, thermodynamic from solid, FeSSIF-v1, pH 5.0, 37° C., target 250 mg/mL (in free form)
Experimental: To prepare the samples of (S)-4-((2-methoxyethyl)(4-(5,6,7,8-tetrahydro-1,8-naphthyridin-2-yl)butyl)amino)-2-(quinazolin-4-ylamino)butanoic acid L-tartaric acid cocrystal Pattern A, 80.6 mg was weighed into a 2 mL glass vial. Next, 0.18 mL of solubility medium was added. The salt amount used is equivalent to 45 mg of the amorphous free form. […] Supernatants were analyzed by HPLC and pH meter for solubility and pH value, respectively. […]

compound: COCCN(CCCCc1ccc2c(n1)NCCC2)CC[C@H](Nc1ncnc2ccccc12)C(=O)O [Pattern A]
solubility at 2 h / mg/mL: 203

----------
protocol: Solubility at 37° C. in aqueous and biorelevant media
Format: physicochemical
test_parameters: FeSSIF-v1 (fed state simulated intestinal fluid), 37 °C, pH 5, fessif, thermodynamic from solid, FeSSIF-v1, pH 5.0, 37° C., target 250 mg/mL (in free form)

structure_string: COCCN(CCCCc1ccc2c(n1)NCCC2)CC[C@H](Nc1ncnc2ccccc12)C(=O)O
solubility at 24 h (mg/mL): 217
